- measured on: T1, TIGIT (human)
- T1 chain: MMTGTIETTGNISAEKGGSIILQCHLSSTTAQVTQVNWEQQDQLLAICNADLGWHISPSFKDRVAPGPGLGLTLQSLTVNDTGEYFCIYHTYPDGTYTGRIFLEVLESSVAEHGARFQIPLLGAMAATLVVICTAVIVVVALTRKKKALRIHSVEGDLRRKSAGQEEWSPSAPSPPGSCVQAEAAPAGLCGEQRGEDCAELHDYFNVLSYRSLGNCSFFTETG
- assay summary: cell-based or functional assay
assay metric: IL-2 luciferase reporter, Normalized Fold Change from CD155-ECD, proteins at 50 nM (fold)

binder	result
variant CD155 IgV-Fc V9L, P18T, Q62R, L79P, F91S, L104M, G111R (Fc fusion) WPPPGTGDLVVQAPTQVTGFLGDSVTLPCYLQVPNMEVTHVSQLTWARHGESGSMAVFHQTRGPSYSESKRLEFVAARPGAELRNASLRMSGLRVEDEGNYTCMFVTFPQRSRSVDIWLRVLGSGGGGSEPKSSDKTHTCPPCPAPEAEGAPSVFLFPPKPKDTLMISRTPEVTCVVVDVSHEDPEVKFNWYVDGVEVHNAKTKPREEQYNSTYRVVSVLTVLHQDWLNGKEYKCKVSNKALPAPIEKTISKAKGQPREPQVYTLPPSRDELTKNQVSLTCLVKGFYPSDIAVEWESNGQPENNYKTTPPVLDSDGSFFLYSKLTVDKSRWQQGNVFSCSVMHEALHNHYTQKSLSLSPGK	7.4
variant CD155 IgV-Fc P18T, M36T, L79P, F91S, G111R (Fc fusion) WPPPGTGDVVVQAPTQVTGFLGDSVTLPCYLQVPNTEVTHVSQLTWARHGESGSMAVFHQTQGPSYSESKRLEFVAARPGAELRNASLRMSGLRVEDEGNYTCLFVTFPQRSRSVDIWLRVLGSGGGGSEPKSSDKTHTCPPCPAPEAEGAPSVFLFPPKPKDTLMISRTPEVTCVVVDVSHEDPEVKFNWYVDGVEVHNAKTKPREEQYNSTYRVVSVLTVLHQDWLNGKEYKCKVSNKALPAPIEKTISKAKGQPREPQVYTLPPSRDELTKNQVSLTCLVKGFYPSDIAVEWESNGQPENNYKTTPPVLDSDGSFFLYSKLTVDKSRWQQGNVFSCSVMHEALHNHYTQKSLSLSPGK	4.1
variant CD155 IgV-Fc P18T, D23G, S24A, N35D, H49L, L79P, F91S, L104M, G111R (Fc fusion) WPPPGTGDVVVQAPTQVTGFLGGAVTLPCYLQVPDMEVTHVSQLTWARLGESGSMAVFHQTQGPSYSESKRLEFVAARPGAELRNASLRMSGLRVEDEGNYTCMFVTFPQRSRSVDIWLRVLGSGGGGSEPKSSDKTHTCPPCPAPEAEGAPSVFLFPPKPKDTLMISRTPEVTCVVVDVSHEDPEVKFNWYVDGVEVHNAKTKPREEQYNSTYRVVSVLTVLHQDWLNGKEYKCKVSNKALPAPIEKTISKAKGQPREPQVYTLPPSRDELTKNQVSLTCLVKGFYPSDIAVEWESNGQPENNYKTTPPVLDSDGSFFLYSKLTVDKSRWQQGNVFSCSVMHEALHNHYTQKSLSLSPGK	3.2
variant CD155 IgV-Fc V9I, V10I, P18S, F20S, T45A, L79P, F91S, L104M, F108Y, G111R, S112V (Fc fusion) WPPPGTGDIIVQAPTQVSGSLGDSVTLPCYLQVPNMEVTHVSQLAWARHGESGSMAVFHQTQGPSYSESKRLEFVAARPGAELRNASLRMSGLRVEDEGNYTCMFVTYPQRVRSVDIWLRVLGSGGGGSEPKSSDKTHTCPPCPAPEAEGAPSVFLFPPKPKDTLMISRTPEVTCVVVDVSHEDPEVKFNWYVDGVEVHNAKTKPREEQYNSTYRVVSVLTVLHQDWLNGKEYKCKVSNKALPAPIEKTISKAKGQPREPQVYTLPPSRDELTKNQVSLTCLVKGFYPSDIAVEWESNGQPENNYKTTPPVLDSDGSFFLYSKLTVDKSRWQQGNVFSCSVMHEALHNHYTQKSLSLSPGK	-1.9
